Exercise: state measured Plant response rating, Blackgrass for each of the compounds provided.
Test system: blackgrass
assay.name: Test B preemergence/postemergence greenhouse plant response rating 0 to 10
Type: in vivo, Alopecurus myosuroides
condition.details: POSTEMERGENCE, Rate 200 g/ha; 0 to 10 scale
API doc: respond with a numeric literal and nothing else, no unit.

input: Fill in reported Plant response rating, Blackgrass for this entry: CCC(=O)Oc1cc(-c2nn3c(c2Cl)CCCC3)c(F)cc1Cl [Compound 47]
output: 8

input: Give the reported value of Plant response rating, Blackgrass for this record: O=C1COc2cc(F)c(-c3nn4c(c3Cl)CCCC4)cc2N1 [Compound 51]
output: 6

input: For CC(C)OC(=O)COc1cc(-c2nn3c(c2Cl)CCCC3)c(F)cc1Cl [Compound 39] , write its Plant response rating, Blackgrass.
output: 4

input: Name the recorded Plant response rating, Blackgrass of the item Clc1ccc(-c2nc3n(c2Cl)CCC=C3)c(Cl)c1 [Compound 1] in your answer.
output: 1

input: State its Plant response rating, Blackgrass for this compound: CCCOc1cc(-c2nn3c(c2Cl)CCCC3)c(F)cc1Cl [Compound 23]
output: 6

----------
System: purple nutsedge
assay.name: Test B preemergence/postemergence greenhouse plant response rating 0 to 10
Type: in vivo, Cyperus rotundus
condition.details: Rate 200 g/ha, POSTEMERGENCE; 0 to 10 scale
Give Plant response rating, Nutsedge for every item shown.
Form field (numeric): enter value without unit.

input: Item CCC(C)Oc1cc(-c2nn3c(c2Cl)CCCC3)c(F)cc1Cl (stereo not shown) : provide Plant response rating, Nutsedge
output: 5

input: Consider the compound `CC(=O)c1cc(-c2nn3c(c2Cl)CCCC3)c(F)cc1Cl` . State its measured Plant response rating, Nutsedge.
output: 6

input: Provide only the value of recorded Plant response rating, Nutsedge for `CC(C)(C)C(=O)COc1cc(-c2nn3c(c2Cl)CCCC3)c(Cl)cc1Cl`
output: 2

input: Look up and state reported Plant response rating, Nutsedge for `CCOC(=O)COc1cc(-c2nn3c(c2Cl)CCCC3)c(Cl)cc1Cl`
output: 3

input: State its Plant response rating, Nutsedge for this compound: `Clc1ccc(-c2nn3c(c2Cl)CCCC3)c(Cl)c1`
output: 3

input: Fill in reported Plant response rating, Nutsedge for this entry: `COC(=O)c1cc(-c2nn3c(c2Cl)CCCC3)c(F)cc1Cl`
output: 3

input: Identify the reported Plant response rating, Nutsedge for the following entry. `COc1cc(-c2nn3c(c2Cl)CCCC3)c(F)cc1Cl`
output: 4

input: Name the recorded Plant response rating, Nutsedge of the item `Clc1cc(Cl)c(-c2nn3c(c2Cl)CCCC3)cc1OCC1CC1` in your answer.
output: 2

input: Hello, please tell me recorded Plant response rating, Nutsedge for this one: `CCOCOc1cc(-c2nn3c(c2Cl)CCCC3)c(F)cc1Cl`
output: 5

input: Give the reported value of Plant response rating, Nutsedge for this record: `CC(C)Oc1cc(-c2nn3c(c2Cl)CCCC3)c(Cl)cc1Cl`
output: 5

----------
Tested on: corn
assay.name: Test B preemergence/postemergence greenhouse plant response rating 0 to 10
Type: in vivo, Zea mays
condition.details: PREEMERGENCE, Rate 50 g/ha; 0 to 10 scale
observable: Plant response rating, Corn
Could you respond with only the numeric value?

input: Input CCOC(=O)c1cc(-c2nn3c(c2Cl)CCCC3)c(F)cc1Cl [Compound 78] , output reported Plant response rating, Corn.
output: 0

input: Read off the recorded Plant response rating, Corn for CCOC(=O)COc1cc(-c2nn3c(c2Cl)CCCC3)c(F)cc1Cl [Compound 42]
output: 0

input: Return reported Plant response rating, Corn. Input molecule: C=CCN1C(=O)COc2cc(F)c(-c3nn4c(c3Cl)CCCC4)cc21 [Compound 33]
output: 0

input: Recall and state the measured Plant response rating, Corn for Clc1ccc(-c2nc3n(c2Br)CCCC3)c(Cl)c1 [Compound 2] .
output: 0

input: Specify Plant response rating, Corn for CCOC(=O)COc1cc(-c2nn3c(c2Cl)CCCC3)c(Cl)cc1Cl [Compound 73] and stop.
output: 0

input: Query Plant response rating, Corn for C#CCOc1cc(-c2nn3c(c2Br)CCCC3)c(F)cc1Cl [Compound 26]
output: 4

input: Input COc1cc(-c2nn3c(c2Cl)CCCC3)c(F)cc1Cl [Compound 29] , output reported Plant response rating, Corn.
output: 0

input: Give Plant response rating, Corn for Clc1cc(Cl)c(-c2nn3c(c2Cl)CCCC3)cc1OCC1CC1 [Compound 69]
output: 0

input: Annotate the molecule Oc1cc(-c2nn3c(c2Br)CCCC3)c(F)cc1Cl [Compound 81] with its measured Plant response rating, Corn.
output: 0
